Experiment: Preliminary evaluation of pharmacokinetics in Beagle dogs
Assay type: in vivo
Conditions: beagle, dog, plasma, iv, 0.5 mg/kg, intravenous 0.5 mg/kg; 4 h; individual animals 1-3; read-out: Plasma drug concentration in Beagle dogs
Measured property: concentration at 4 h

In [3]: df
Out[3]:
                                   molecule     measured_property      result
0  CC(C)Oc1ccc(-c2nc(-c3ccc(CN4CC(C(=O)O)C4)c4ccccc34)no2)cc1C#N.Cl [Compound A1]  concentration at 4 h  9.68 ng/mL

###

Experiment: Preliminary evaluation of pharmacokinetics in Beagle dogs
Assay type: in vivo
Conditions: beagle, dog, plasma, iv, 0.5 mg/kg, intravenous 0.5 mg/kg; 3 h; mean; read-out: Plasma drug concentration in Beagle dogs
Measured property: concentration at 3 h (ng/mL)

>>> print(df.to_string())
                           smiles_structure     measured_property  quantitative_readout
0  CC(C)Oc1ccc(-c2nc(-c3ccc(CN4CC(C(=O)O)C4)c4ccccc34)no2)cc1C#N.Cl  concentration at 3 h                  17.7

###

Assay: Preliminary evaluation of pharmacokinetics in Beagle dogs
Assay type: in vivo
Details: beagle, dog, plasma, iv, 0.5 mg/kg, Beagle dogs; intravenous 0.5 mg/kg; individual animals 1-3
Measured property: half-life

>>> print(df.to_string())
                           smiles_structure    result
0  CC(C)Oc1ccc(-c2nc(-c3ccc(CN4CC(C(=O)O)C4)c4ccccc34)no2)cc1C#N.Cl  59.8 min

###

Assay: Preliminary assessment of in vivo pharmacokinetics in rats
Conditions: rat, plasma, po, 20 mg/kg, rats; intragastric 20 mg/kg; individual animals 4-6; read-out: AUC0-t
Measured property: AUC0-t (ng·h/mL)

In [3]: df
Out[3]:
                           smiles_structure  quantitative_readout
0  CC(C)Oc1ccc(-c2nc(-c3ccc(CN4CC(C(=O)O)C4)c4ccccc34)no2)cc1C#N.Cl                  9590

###

Test: Preliminary assessment of in vivo pharmacokinetics in rats
Settings: rat, plasma, po, 20 mg/kg, rats; intragastric 20 mg/kg; individual animals 4-6
Measured property: AUC(0-inf) (ng·h/mL)

                                   compound  quantitative_readout
0  CC(C)Oc1ccc(-c2nc(-c3ccc(CN4CC(C(=O)O)C4)c4ccccc34)no2)cc1C#N.Cl [Compound A1]                  9600

###

Assay: Preliminary assessment of in vivo pharmacokinetics in rats
Settings: rat, plasma, po, 20 mg/kg, rats; intragastric 20 mg/kg; mean; read-out: Tmax
Measured property: Tmax

                           smiles_structure  result
0  CC(C)Oc1ccc(-c2nc(-c3ccc(CN4CC(C(=O)O)C4)c4ccccc34)no2)cc1C#N.Cl  50 min

###

Experiment: Preliminary assessment of in vivo pharmacokinetics in rats
Conditions: rat, plasma, oral, 20 mg/kg, intragastric 20 mg/kg; 0.5 h; mean; read-out: Plasma drug concentrations in rats
Measured property: concentration at 0.5 h (ng/mL)

In [3]: df
Out[3]:
                           smiles_structure       measured_property  quantitative_readout
0  CC(C)Oc1ccc(-c2nc(-c3ccc(CN4CC(C(=O)O)C4)c4ccccc34)no2)cc1C#N.Cl  concentration at 0.5 h                  2430

Sourced from patent US20240208954A1
